Assay: yeast display, Sf9 membrane polyspecificity reagent, FACS + sequencing; frameworks hold sequencing errors
MEASUREMENT NAME: polyreactivity (PSR sort gate)

Example cases with answers are listed next.
* QVQLVESGGGLVQAGGSLRLSCAASGRTFAYNAMGWYRQAPGKERELVAAITRRGGSTYYADSVKGRFTISRDNAKITVYLQMNSLKPEDTAVYYCDARWVTTVQGDGRYDYWGQGTQVTVSS | low polyreactivity
* QVQLVESGGGLVQAGGSLRLSCAASGLIFYWYTMGWYRQAPGKEREFVAAITWGGGGTYYADSVKGRFTISRDKAKNTVYLQMNSLKPEDTAVYYCAAEEQVVKAHGDYWGQGTQVTVSS | low polyreactivity
* QVQLVESGGGLVQAGGSLRLSCAASGSTFGVYAMGWYRQAPGKERELVAAISGSGAGTYYADSVKGRFTISRDNAKNTVYLQMNSLKPEDTAVYYCAAETYYSIYDYWGQGTQVTVSS | high polyreactivity
* QVQLVESGGGLVQAGGSLRLTCAATGSTFHLYGMGWYRKAPGKESELVAAITKRGTSTYYADSVKGRFTISRDNAKNTVYLQINSLKPEDTAVYYCADEYTKEQRGFDYWGQGTQVTLSS | high polyreactivity

Measured polyreactivity (PSR sort gate), "QVQLVESGGGLVQAGGSLRLSCAASGSIFYLNAMGWYRQAPGKERELVAAISKRGSRTYYADSVKGRFTISRDNAKNTVYLQMNSLKPEDTAVYYCNALDTPGYNTEPARQYDHWGQGTQVTVSS" : high polyreactivity

* * *

Experiment: yeast display, Sf9 membrane polyspecificity reagent, FACS + sequencing; frameworks hold sequencing errors
MEASUREMENT NAME: polyreactivity (PSR sort gate)

Example cases with answers are listed next.
- QVQLVESGGVLVQAGGSLRLSCAASGSTFKPYAMGWYRQAPGKEREFVAANSRGTRTYADSVKGRFTISRDNAKNTVSLPMNSLKPEDTAVYYCAAEWSWIFGYHYEYDYGGQGTQVTVSS: low polyreactivity
- QVQLVESGGGLVQAGGSLRLSCDASGRTFYRNDMGWYRQAPGKERELVAAISSGGSTTYADSVKGRFTISRDNAKNTVYLQMNSLKPEDTAVYYCAADFLDYWGVYGWAEYEYWGQGTQVTVSS: low polyreactivity
- QVQLVESGGGLVQAGGSLRLSCAASGRIFGRYAMGWYRQAPGKERELVAGISARGGSTYYADSVKGRFTISRDNAKNTVYLQMNSLKPADTAVYYCAAAGYRGGGYWGQRTQVTVSS: high polyreactivity
- QVQLVESGGGLVQAGGSLRLSCAASGSTFPVNAMGWYRQAPGKERELVATIRWTGGGTYYADSVKGRFTISRDNAKNTVYLQMNSLKPEDTAVYYCAADPPWEWSDYGYDYWGQGTQVTVSS: low polyreactivity
- QVQLVESGGGLVQAGGSLRLSCAASGNTFSYYAMGWYRQAPGKERELVAAISWRGGSTYYADSVKGRFTISRDNAKNTVYLQMNSLKPEDTAVYYCAADLYWASLWYVGAAYGYEYWGQGTQVTVSS: low polyreactivity
- QDQLVESGGGLVQAGGRLRLSCAASGSIFCGNAMGWYRQAPGKERDLVAAITYRSGRTYYADSVKGRFTISRDNAKNTVYFQMNSLKPEDTAVYDCAAEFGGASRYTYNYWGQGTQVTVSS: low polyreactivity

Batch request: polyreactivity (PSR sort gate) for each of the following sequences.
1. QVQLVESGGGLDQAGGSLRLSCAASGFIFYQNAMGWYKQAPGKERELFAAISTTGSRTYYADSVKGRFTISRDNPKNTVYLQMNRLKPVDTAVYYCATPLQQEGDWGQGTQVTVSS
2. QVHLVESGGGLVQAGGSLRLSCAASGFIFQYYAMGWYRQAPGKEREMVAAINRGGGTHYADSVQGRFTISRDNAKNTVYLQMNSLKPEVTAVYYCNKVYYWPGSRPSRYEYWGQGTQVTVSS
3. QVQLVESGGGLVQPGGSLRLSCAASGSIDCYGMGWYRQAPGKERELVAIITSVYSTYYADSVKGRFKISRDNAKNTVYLQMNSLKPEDTAVYYCAATAAYFYGQFYYWGQGTQVTVSS
4. QVQLVESGGGLVQAGGSLRLSCAASGRTFTPNAMGWYRQAPGKERELVAAITSTGGRTYYADSVKGRFTISRDNAKNTVYLQMNSLKPEDTAVYYCAVSYRYLRKYGYWGQGTQVTVSS
5. QVQLVESGGGLVQAGGSLRLSCAASGSISYDYAMGWDRQAPGKERELVASITSRGGSTYADSVKGRFTISRDKAKNTVYLQMNSLKPEDTAVYYCAADAIPNLIFISLPFGLDYWGQGTQVTVSS

**A:**
1: high polyreactivity; 2: low polyreactivity; 3: high polyreactivity; 4: high polyreactivity; 5: low polyreactivity

* * *

Test: yeast display, Sf9 membrane polyspecificity reagent, FACS + sequencing; frameworks hold sequencing errors
MEASUREMENT NAME: polyreactivity (PSR sort gate)

Example cases with answers are listed next.
- QVQLVESGGGLVQAGGSLRLSCAASGRTFYWYTMGWYRQAPGKERELVAAISIGGITSYADSVKGRFTISRDNAKNTVYLQMNSLKPEDTAVYYCAAESACSRPYFNSIHRRDSWGQGTQVTVSS: low polyreactivity
- QVQLVESGGGLVQAGGSLRLSCAASGFIFSYYAMGWYRQAPGKERELVAAISGRGGSTYYADSVKGRFTISRDNEKNTVYLQMNSLKPEDTAVYYCAATTLRFYRHGDYWGQGTQVTVSS: low polyreactivity
- QVQLVESGGGLVQAGGSLRLSCAASGSIFGYYVMGWYRPAPGKERELVAAITRSGSTYYADSVKGRFTISRDNAKNTVYLQMNSLKPEDTAGYYCAADGSYYWYPHTTYDYWGQGTQVTVSS: low polyreactivity
- QVQLVESGGGLVQAGGSLRLSCAASGSTFVSNAMGWYSQAPGKERELVAAISSSDDSTYYADSVKGRFTLSRDKAKNTVYLQMISLKPEDTAVYYCAAESDSDQHDGDYWGQGTQVTVSS: low polyreactivity
- QVQLVESGGGLVQAGASLRLSCAASGGTIAPYAMGWYRQAPGNVRELVAAITSAGTRTYYADSVKGRFTISRENAKNTVYLQMNRLKPEDTAVYYCAAGGGHSMYYWGKGTQVTVSS: high polyreactivity
- QVQLVESGGGLVQAGGSLRLSCAASGRTFYKYVMGWYRQAPGKERELVAAITRSGGGTYYADSVKGRFTISRDNAKNTVYLQMNSLKPEDTAVYYCAVSGRSYYRSDYWGQGTQVTVSS: high polyreactivity
- QVLLVESGGGLVQAGGSLRLSCSASGNAMGWYRQAPGKERELVAAITRRGGSTYYADSVKGSFTISRDNAKNTVYLQMNSLKPEDTAVYYCADDNPSYNLWYGYWGQGTQVTVSS: low polyreactivity
- QVQLEESGGGLVQAGGSLRLSGAASGYTFGHYGMGWYRQAPGKERELVAAINSGGSTNDADSVKGRFTISRDNAKNTVYVQMNSLKPEDTAVYYCAADHSGGSRYDYWGQGTLVTVSS: low polyreactivity
- QVQLVESGGGLVQAGGSLRLSCAASGSIFRTNAMGWYRQAPGKERELVAAISQRGGSTYYADSVKGRFTISRDNAKNTVYLQMNSLKPEDTAVYYCAAPYTQKRGYDYWGQGTLVTVSS: high polyreactivity
- QVQLVESGGGLVQAGGSLRLSCAASGIIFTYYAMGWYRQAPGKERELVADIDWSGDGTYYADSVKGRFTISRDNAKNTVYLQMNSLKPEDTAVYYCAAEGTETYYVFYDQPEITLYDYWGQGTQVTVSS: low polyreactivity

Measured polyreactivity (PSR sort gate), "QVQLVESGGGLVQAGGSLRLSCAASGSIFCRYDMGWLDRRLGKKGSSLPLLLVLVTTRTTQTPVKGRFTISRDNAKNTVYLQIICLKPEDTAVYNCAADLRASGLKYEYWGQGTQVTVSS" : low polyreactivity

* * *

Test: yeast display, Sf9 membrane polyspecificity reagent, FACS + sequencing; frameworks hold sequencing errors
MEASUREMENT NAME: polyreactivity (PSR sort gate)

• QVQLVESGGGIVQAGGSLRLSCAASGFTISRYAMGWDRPAPGKERELVAAITGSGGSTYYADSVKGRFTISRDIAKNTVYLQMNSLKPEDTAVYYCNTMKHYKREYDYWGQGSQVTVSS = high polyreactivity
• QVQLVDSGGGLVQAGGSLRLSCAASGSTFVTYAMRWYRQAPVKERELVAAITEDGASTYYADSVKGRFTISRDNAKNTVYFQLNSLYPEDTAVYYCAADPTYWPVWYVLYDYWGQGTQVTVSS = low polyreactivity
• QVQLVESGGGLVQAGGSLRLSCAASGLIFGVNAMGWYRQAPGKEREFVARITRSGSSTYYADSVKGRFTISRDNAKNTVYLQMNSLKPEDTAVYYCAVDLFYKYDWGQGTQVTVSS = high polyreactivity
• QVQLVESGAGLVKAGGSLRLSCAASGRSFRGNVMGWYRQAPGKEREFVAAISSSGGSTYYADSVKGRFTISRDNAKNTVYLQMNSLKPEDTAVYYCAAGGWPYSGGWFFQPNYDYWGQGTQVTVSS = low polyreactivity
• QVQLVESGGGLVQAGGSLRLSCAASGFTISYYAMGWYRQAPWKERELVASISSSGGRTYYADSVKGRFTISRDNAKNTVYLQMNSLKPEDTAVYYCAAVGGRSTRGYYWGQGTQVTVSS = high polyreactivity
• QVQLVESGGGLVQAGGSLRLSCAASGSILSYYAMGWYRQAPGKERELVAAISKSGGRTYYADSVKGRFTISRDNAKNTVYLQMNRLKPEDTAVYYCAAPATYKYDYWGQGTQVTVSS = high polyreactivity

Batch request: polyreactivity (PSR sort gate) for each of the following sequences.
1. QVQLVESGGGLVQAGGSLRLSCAASGYIFTYYAMGWYRQAPGKERELVAAISRGGSTYYADSVKGRFTISRDNAKYTVYLQMNSLKPEDTAVYYCNARPRWPWVVNFGYYYWGQGTQVTVSS
2. QVQLVESGGGLVQAGGSLRLSCAASGSIISAYAMGWYRQAPGKVREFVASITWSGGSTYYADSVKGRFTISRDNAKNTVYLQMNSLKPEDTAVYDCAAVYVTWYNNYEYWGQGTQVTVSS
3. QVHLVESGGGLVQAGGSLRLSCASYGSTLELNAMGWYRQAPGKERELVAAITSSGGRTYYADSVKGRFTISRDNAKNTVYLQMKSLKPEDTAVYYCAAEPGQQRVVDRYDYWGQGTQVTVSS
4. QVQLGESGGGLVQAGGSLRLSCAASGRIFRWYAMGWYRQAPGKVRELVAAISRSGTSTYYADSVKGRFTISRDNAKNTVYLQMNSLKPEDTAVYYCAADAVIFGMDYWGQGTQVTVSS
5. QVQLVESGGGLVQAGGSLRLSCAASGRTFVTNAMGWYRQAPGKERELVAAITQRGGRTYYADSVKGRFTISRDNAKNTVYLQMNSLKPEDTAVYYCAASYYGWSARYDTLGIYEYWGQGTQVTVSS
6. QVQLVESGGGLVQAGGSLRLSCAASGRILFWYAMGWYRQAPGKERELVAAISSSGGSTYYADSVKGRFTISRDNAKNTFYLLMNSLKPEDTAVYYCAADGVVDYGYWFVVEYEYWGQGTQVTVSS

**A:**
["low polyreactivity", "high polyreactivity", "low polyreactivity", "low polyreactivity", "high polyreactivity", "high polyreactivity"]

Batch request: polyreactivity (PSR sort gate) for each of the following sequences.
1. QVQLVESGGGLVKAGGSLRLSCAASGSTFQWYAMGWYRQAPGKERELVAAINKSGGTTYYADSVKGRFTISRDNAKNSVYLQMNSLKPEDTAVYYCATDNPVVYQPGNMDYWGQGTQVTVSS
2. QVQLVESGGGLFQAGGSLRLSCAASGRTFAYYTMGWYRQAPGKERELVAAITSSGGSTYYADSEKGRFTISRDNAKNTVYLQMNSLKPEDTAVYYCNAYGLRWASRLGYDYWGQGTQVTVSS
3. QVQLVESGGGLVQAGGSLRLSCAASGRIFWDYGMGWYRQAPGKERELVAVITWGGGSTYYADSVKGRFTISRDNAKNTVYFQMNSLKPEDTAVYYCAKEYHYYYWGQGTQVTVSS
4. QVQLVESGGGLVQAGGRLRLICAASGYTFPLYAMGWYRPAPGKERELVADINIGGASTYYADSVKGRFTISRDNAKNTVELQMNSLKPEDPAVYYCAKEYYDGYFPTFDYDYWGQGTQVTVSS

**A:**
1: low polyreactivity; 2: high polyreactivity; 3: low polyreactivity; 4: low polyreactivity

Batch request: polyreactivity (PSR sort gate) for each of the following sequences.
1. QVQLVESGGGLVQSGGSLRLSCAASGINFLYYAMGWYIQAPGKERELVARINRSGGSTYYADSVKGRFTISRDNAKYTVYLQMNSLKPEDSAVYYCAADYLYRSPAYEHYYWGQGTQVTVSS
2. QVQLVESGGGIVQAGGSLRLSCAASGRTFYGNVMGWYRQAPGKERELVATISFSAGSTYYADSVKGRFTISRDNAKNTVYLQMNSLKPEDTAVYYCNADHTDYASGGGNYWGQGTQVTVSS
3. QVHLVESGGGVVQAGGSRRLSCAASGSIIHDNAMGWYRQAPGKERELVADITWSGGSTYYADSVKGRFTISRDNAKITVYLQMNSLKPEETAVYDCAAGSGHWYYYDFDYWGQGTLVTVSS
4. QVQLVESGGGLFQEGGSLRLSCAASGRIFYGYGMGWYRQAPGKERELVAAITWSGSRTYYADSVKGRFTISRDNAKNTVYVQMNSLKPEDTAVYYCAARIPSDGYYYWGQGTQVTVSS
5. QVQLVESGGGLVQAGGSLRLSCAASASIFRYYAMGWYRQAPGKERELVAAISYSGGSTYYADSVKGRFTISRDNAKNTVYLQMNSLKPEDTAVYYCAVPLICVDGYAYDYWGQGTQVTVSS

**A:**
["high polyreactivity", "low polyreactivity", "high polyreactivity", "high polyreactivity", "low polyreactivity"]
